- assay-comment: gradient 5% acetonitrile 3 min, to 50% in 2 min, to 85% in 15 min, held 3 min, 100 µL/min
- measurement-parameters: column: Zorbax Extend-C18 2.1 x 50 mm; eluents: water / acetonitrile, 0.1% formic acid
measured-attribute: RP-LC retention time (s)

P: N[C@@H](Cc1ccc2oc3cc(=O)c4ccccc4c-3nc2c1)C(=O)O
Q: Cc1nn(-c2ccccc2)c(C)c1S(=O)(=O)N1CCC(C(=O)N2c3ccccc3CC2C)CC1 (centres undefined)
Prompt line: Lower value of RP-LC retention time belongs to which: P or Q ? // caller expects the label of the chosen entry
Response line: P
(P: 611 s, Q: 1060 s)

I: Cn1c(-c2cccc(C(=O)N3CCN(c4ccccc4)CC3)c2)nc2cccnc21
II: Fc1ccc(-c2nc(-c3ccc(-n4cccn4)nc3)no2)cc1
Prompt line: Lower value of RP-LC retention time belongs to which: I or II ? // caller expects the label of the chosen entry
Response line: I
(I: 736 s, II: 1230 s)

1: CCN(Cc1ccccc1)C(=O)Cn1cnc(C)cc1=O
2: CC(C)CN1C(=O)CCc2cc(NS(=O)(=O)c3cccc(F)c3)ccc21
Prompt line: Lower value of RP-LC retention time belongs to which: 1 or 2 ? // caller expects the label of the chosen entry
Response line: 1

A: Clc1ccc(-c2nc(N3CCN(C4CCCCC4)CC3)c3ccccc3n2)cc1
B: O=C(NCc1csc(-c2cccs2)n1)C1CCN(S(=O)(=O)c2cccs2)CC1
Prompt line: Form field 'greater RP-LC retention time' accepts A or B ; which applies? // caller expects the label of the chosen entry
Response line: B
(B: 830 s, A: 562 s)

a: O=C(NC1CCCCCCC1)C1CCN(C(=O)c2cc(-c3ccncc3)n[nH]2)CC1
b: Cc1nc2cc(-c3noc(Cc4c(F)cccc4Cl)n3)ccc2o1
Prompt line: Lower value of RP-LC retention time belongs to which: a or b ? // caller expects the label of the chosen entry
Response line: a
